# assayProcedure: in vivo
# measurementConditions: both, SD, rat, iv, 0.3 mg/kg
Residues, ends and D or L forms follow the SMILES beside them.
metric: Cmax (ng/mL)

INSERT INTO measurements (compound, metric, valuereported) VALUES
  ('CC(=O)N[C@H](C(=O)N[C@@H](CO)C(=O)N[C@@H](CCCNC(=N)N)C(=O)N[C@@H](CCCNC(=N)N)C(=O)N[C@@H](CCCNC(=N)N)C(N)=O)C(C)C [CN-105, Ac-VSRRR-NH2] (Ac-VSRRR-NH2)', 'Cmax', 1570);

----------
# assayProcedure: in vivo
# measurementConditions: both, monkey, iv, 2.5 mg/kg
Residues, ends and D or L forms follow the SMILES beside them.
metric: Vd (L/kg)

INSERT INTO assay_data (compound, valuereported) VALUES
  ('CC(=O)N[C@H](C(=O)N[C@@H](CO)C(=O)N[C@@H](CCCNC(=N)N)C(=O)N[C@@H](CCCNC(=N)N)C(=O)N[C@@H](CCCNC(=N)N)C(N)=O)C(C)C [CN-105, Ac-VSRRR-NH2] (Ac-VSRRR-NH2)', 0.691);

# credit: paper PMC8787096
